Measured values drawn from ChEMBL document CHEMBL1132600 for this set.

Catalogue of Relative rate of hydrolysis readings, one per entry.
# target.or.system: Fatty-acid amide hydrolase 1 (Rattus norvegicus) (UniProt P97612)
# Sequence (whole entry): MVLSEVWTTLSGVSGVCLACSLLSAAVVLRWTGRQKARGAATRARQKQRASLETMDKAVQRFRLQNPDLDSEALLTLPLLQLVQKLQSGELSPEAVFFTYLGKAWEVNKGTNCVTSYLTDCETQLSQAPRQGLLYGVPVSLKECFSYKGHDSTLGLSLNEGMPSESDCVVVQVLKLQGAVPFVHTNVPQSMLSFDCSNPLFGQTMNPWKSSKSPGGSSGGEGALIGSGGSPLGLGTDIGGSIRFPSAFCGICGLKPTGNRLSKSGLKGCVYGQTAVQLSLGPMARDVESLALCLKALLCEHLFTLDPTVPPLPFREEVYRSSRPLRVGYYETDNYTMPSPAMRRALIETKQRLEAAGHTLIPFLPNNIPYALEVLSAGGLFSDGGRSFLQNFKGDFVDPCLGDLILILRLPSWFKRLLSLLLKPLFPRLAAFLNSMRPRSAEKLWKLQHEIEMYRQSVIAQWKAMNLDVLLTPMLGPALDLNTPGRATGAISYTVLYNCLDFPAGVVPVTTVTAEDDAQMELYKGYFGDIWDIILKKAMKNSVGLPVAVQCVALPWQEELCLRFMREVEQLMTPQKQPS
# procedure.details: Tested for hydrolysis by rat brain microsomal anandamide amidohydrolase (AAH).
test.readout: Relative rate of hydrolysis (%)

1. CCCCC/C=C\C/C=C\C/C=C\C/C=C\CCCC(=O)NCCF
127
2. CCCCCCCC/C=C\CCCCCCCC(=O)NCCO
61.1
3. CCCCC/C=C\C/C=C\CCCCCCCC(=O)N[C@@H](C)CO
20.5
4. CCCCC/C=C\C/C=C\C/C=C\C/C=C\CCCC(=O)NC1CCC(O)CC1 (stereo unspecified)
2
5. CCCCC/C=C\C/C=C\C/C=C\C/C=C\CCCC(=O)NC(C)(C)CO
4.3
6. CCCCC/C=C\C/C=C\C/C=C\C/C=C\CCCC(=O)Nc1ccc(CO)cc1
0
7. CCCCC/C=C\C/C=C\C/C=C\C/C=C\CCCC(=O)Nc1cccc(O)c1
152
8. CCCCCCCCCCCCCCCCCC(=O)NCCO
15
9. CCCCC/C=C\C/C=C\C/C=C\C/C=C\CCCC(=O)NC[C@H](C)O
21
10. CCCCC/C=C\C/C=C\C/C=C\C/C=C\CCCC(=O)N[C@@H](C)CC
6.3
11. CCCCC/C=C\C/C=C\C/C=C\C/C=C\CCC(C)(C)C(=O)NCCO
0.7
